Tested on: primary AML specimens
Assay: Dose-response assays in primary AML specimens (6 days, CellTiterGlo)
Type: cell-based, human
Conditions: Homo sapiens, 144 h, primary AML specimen 04H096; 6 days; read-out: IC50
MEASUREMENT TYPE: IC50
The number alone won't do; follow it with the unit.

Completed entries (count: 3):
> print(dat)
                           structure.string            test.target   result
1  CC(C)(C)c1cnc(CSc2cnc(NC(=O)C3CCNCC3)s2)o1  primary AML specimens   118 nM
2  CN(C)C/C=C/C(=O)Nc1ccc(C(=O)N2CCC[C@@H](Nc3ncc(Cl)c(-c4c[nH]c5ccccc45)n3)C2)cc1  primary AML specimens  44.4 nM
3  Cn1cc(-n2cnc3c(NCc4nc5cc(Cl)c(Cl)cc5[nH]4)nc(N4CCOCC4)nc32)cn1  primary AML specimens  37.8 nM

We now examine a further compound.
# assay system primary AML specimens: give IC50 of CN(C)c1ccc(CC(=O)Nc2ncc(SCc3cccnc3)s2)cc1
846 nM
